Reference source: PubChem BioAssay

- Test name: MM1S myeloma cell viability, profiling panel, resazurin fluorescence, basal, 24 h, PK04 Diversity Set (AID 1174);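 further: MM1S multiple myeloma cell line; test concentration not given here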
- Measurement setup: higher = more signal, called active from +8 up or from −8 down
Endpoint: z-score
Format: numeric value only, no unit, no commentary.

Below, each entry is followed by its recorded z-score result.
Fill in the blank: the reported z-score of CCOC(=O)[C@H](Cc1ccccc1)NC(=O)CCC1CC(OC(=O)NCc2cccc3ccccc23)CC2(CCCC(COC(=O)NCc3cccc(C(F)(F)F)c3)O2)O1 (stereo not given in full) is ____.
0.415

Thanks! And C#CCCCON=C1C[C@@H](O)[C@@H](O)[C@@H]2[C@@H]3C(=O)N(c4cccc(Oc5ccccc5)c4)C(=O)[C@@H]3CC[C@H]12 ?
1.08

Thanks! And CC(C)=CCCC(C)=CCON=C1C[C@@H](O)[C@@H](O)[C@@H]2[C@@H]3C(=O)N(c4cccc(Oc5ccccc5)c4)C(=O)[C@@H]3CC[C@@H]12 ?
0.815

Thanks! And CON=C1[C@H]2CCn3c(=O)n(-c4ccccc4)c(=O)n3[C@H]2[C@H](O)[C@@H]2O[C@H]12 ?
0.333

Thanks! And CO[C@H]1COC(=O)[C@@H](C)COC(=O)[C@H](C)NC(=O)CC=C[C@H]1C ?
0.433

***
Fill in the blank: the reported z-score of COc1ccc(COC(=O)NN=C2C[C@@H](O)[C@@H](O)[C@@H]3[C@@H]4C(=O)N(C5CCCCC5)C(=O)[C@@H]4CC[C@H]23)cc1 is ____.
-1.15
